assayed_system: Human CD79B Protein, His Tag (MALS verified), Cat. No. #CDB-H52H3-1mg, ACRO (human) (UniProt P40259)
Sequence (P40259 29-159 limits assumed): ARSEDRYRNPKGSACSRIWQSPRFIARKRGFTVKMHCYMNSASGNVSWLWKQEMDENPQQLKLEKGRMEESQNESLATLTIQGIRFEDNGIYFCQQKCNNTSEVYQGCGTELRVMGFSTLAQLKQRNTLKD
assay_explanation: ELISA on coated antigen, anti-myc detection; 20ug antibody added
measured_metric: OD450 nm

Worked set:
binder	OD450 nm
anti-CD79B single-domain antibody JYB4 (VHH, Alpaca VHH from a phage library; not shown: His-tag protein at the C-terminal end) VHH: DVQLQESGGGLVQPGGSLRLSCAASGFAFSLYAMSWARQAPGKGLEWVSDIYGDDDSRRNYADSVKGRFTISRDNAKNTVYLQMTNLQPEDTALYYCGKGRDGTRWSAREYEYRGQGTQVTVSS	0.552 OD450
anti-CD79B single-domain antibody JYB11 (VHH, Alpaca VHH from a phage library; ELISA detected with an anti-myc antibody; a myc tag is not described; not shown: His-tag protein at the C-terminal end) VHH: DVQLQESGGGLVQPGGSLSLSCAASMSSPSLWVRAWHRQAPGKQRELVAAINSDGQTMYADSVKGRFTISRDNAKTLVSLQMDSLKPEDTAVYYCNVVTPRGQQYWGQGTQVTVSS	0.379 OD450
anti-CD79B single-domain antibody JYB8 (VHH, not shown: small tags and cut ends) VHH: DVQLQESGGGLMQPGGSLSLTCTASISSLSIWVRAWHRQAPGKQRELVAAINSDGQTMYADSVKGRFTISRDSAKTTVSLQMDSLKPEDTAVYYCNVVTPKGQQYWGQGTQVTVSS	0.596 OD450
anti-CD79B single-domain antibody JYB10 (VHH, Alpaca VHH from a phage library; ELISA detected with an anti-myc antibody; a myc tag is not described; not shown: His-tag protein at the C-terminal end) VHH: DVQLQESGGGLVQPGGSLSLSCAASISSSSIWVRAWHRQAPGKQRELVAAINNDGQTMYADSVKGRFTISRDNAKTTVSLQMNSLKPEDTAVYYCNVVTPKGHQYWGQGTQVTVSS	0.285 OD450

Exam item: For the binder anti-CD79B single-domain antibody JYB14 (VHH, Alpaca VHH from a phage library; ELISA detected with an anti-myc antibody; a myc tag is not described; not shown: His-tag protein at the C-terminal end) VHH: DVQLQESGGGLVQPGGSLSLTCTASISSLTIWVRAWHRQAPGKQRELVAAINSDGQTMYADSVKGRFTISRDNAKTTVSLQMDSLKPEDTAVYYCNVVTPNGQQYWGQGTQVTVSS , what OD450 nm is on record?
Marked response: 0.495 OD450
